# Test system: morningglory (Ipomoea coccinea)
# Assay protocol: Test C preemergence
# Assay type: in vivo
# Condition set: 16 g ai/ha, scale 0 to 100, 0 is no effect, 100 is complete control
Result type: Plant response rating, Morningglory
Give bare numbers.

Worked set:
INSERT INTO measurements (smiles_data, recorded_result) VALUES
  ('O=c1cccc(Oc2ncc(Cl)cn2)n1-c1ccc(Cl)cc1', 0),
  ('O=c1cccc(Oc2ncc(Cl)cn2)n1-c1ccc(C(F)(F)F)cn1', 0),
  ('O=c1cccc(Oc2ncc(Cl)cn2)n1-c1ncc(Cl)cn1', 5);

Form field Plant response rating, Morningglory, entry `O=c1cccc(Oc2ncc(Cl)cn2)n1-c1ccc(C(F)(F)F)cc1` : 0
